MEASURED_ON: human SOS1 (loading of human K-Ras^G12C-GDP with fluorescent GTP-analog) (Homo sapiens, UniProt Q07889)
PROTOCOL_DETAILS: Biochemical assay 3: K-Ras^G12C activation assay by hSOS1 (HTRF)
MEASUREMENT_SETUP: no GTP; read-out: Assay 3 (KRAS-Activation by SOS no GTP) activity expressed as IC50
pIC50: −log10 of the molar value.
Binary classification by pIC50, with 6 as an inclusive lower bound for rule met; all other cases are rule not met.

Would you please look over these solved cases?
COc1cc2nc(C)nc(N[C@H](C)c3cccc(Br)c3)c2cc1OC; rule met
COc1cc2nc(C)nc(NC(C)c3csc(-c4cnc5n4CCC5)c3)c2cc1OC (stereo not shown); rule not met
COc1cc2nc(C)nc(NC(C)c3ccc(-c4ccccc4CN4CC5(COC5)C4)s3)c2cc1OC (stereo not shown); rule met

Decide: is the reported value of pIC50 for COc1cc2nc(C)nc(NC(C)c3cccc(Oc4ccccc4)c3)c2cc1OC (stereo not shown) [Example 215] equal to or greater than 6?
rule not met

Decide: is the reported value of pIC50 for CNC(=O)CNCc1ccccc1-c1ccc(C(C)Nc2nc(C)nc3cc(OC)c(OC)cc23)s1 (stereo not shown) equal to or greater than 6?
rule met

Decide: is the reported value of pIC50 for COc1cc2nc(C)nc(NC(C)c3ccc(-c4ccc(F)cc4CNC(=O)c4cc5ccccc5[nH]4)s3)c2cc1OC (stereo not shown) equal to or greater than 6?
rule not met

Decide: is the reported value of pIC50 for COc1cc2nc(C)nc(NC(C)c3ccc(-c4ccccc4CN4CCC[C@H]4CN(C)C)s3)c2cc1OC (stereo partly shown) equal to or greater than 6?
rule met

Decide: is the reported value of pIC50 for COc1cc2nc(C)nc(NC(C)c3ccc(-c4ccccc4)o3)c2cc1OC (single isomer, unassigned) equal to or greater than 6?
rule not met

Decide: is the reported value of pIC50 for COC(=O)c1ccccc1-c1ccc(C(C)Nc2nc(C)nc3cc(OC)c(OC)cc23)s1 (stereo not shown) equal to or greater than 6?
rule not met

Decide: is the reported value of pIC50 for COc1cc2nc(C)nc(NC(C)c3ccc(-c4ccc(F)cc4CNC(=O)[C@@H]4CCCN4)s3)c2cc1OC (stereo partly shown) equal to or greater than 6?
rule met

Decide: is the reported value of pIC50 for COc1cc2nc(C)nc(N[C@@H](C)c3ccc(-c4cnc(N)nc4)s3)c2cc1OC (racemic) equal to or greater than 6?
rule not met

The origin of these recorded values is patent US20240083857A1.
